experiment notes: Pharmacokinetic phase: plasma exposure after oral dosing in non-infected PXB mice
Assay type: in vivo
run conditions: PXB, mouse, plasma, po, 10 mg/kg, non-infected PXB mice, 10 mg/kg p.o., 6 h, animal 101; read-out: Plasma conc.
quantity name: concentration at 6 h (ng/mL)
Just the number in ng/mL, nothing appended.

Input line: // returns reported concentration at 6 h for input CCCCC1CN(c2ccccc2)c2cc(SC)c(O/C=C(\F)C(=O)O)cc2S(=O)(=O)N1C (stereo not shown)
Output line: 46.2

###

experiment notes: Pharmacokinetic phase: plasma exposure after oral dosing in non-infected PXB mice
Type: in vivo
run conditions: PXB, mouse, plasma, po, 30 mg/kg, non-infected PXB mice, 30 mg/kg p.o., 6 h, animal 303; read-out: Plasma conc.
Experimental: Thirty microliters (30 μL) of blood were collected from all animals under isoflurane anesthesia via the retro-orbital plexus/sinus using sodium heparin-coated calibrated pipettes according to the collection schedule shown in Table 7. […] The plasma exposure of Compound 1 from the pharmacokinetic phase was measured via LC/MS- MS. The lower limit of quantitation was 1 ng/mL.
quantity name: concentration at 6 h (ng/mL)
Just the number in ng/mL, nothing appended.

Input line: // returns reported concentration at 6 h for input CCCCC1CN(c2ccccc2)c2cc(SC)c(O/C=C(\F)C(=O)O)cc2S(=O)(=O)N1C (stereo not shown)
Output line: 1490

###

experiment notes: Pharmacokinetic phase: plasma exposure after oral dosing in non-infected PXB mice
Assay type: in vivo
run conditions: PXB, mouse, plasma, po, 30 mg/kg, non-infected PXB mice, 30 mg/kg p.o., 0.5 h, mean of 3 animals; read-out: Plasma conc. Mean ± SD
quantity name: concentration at 0.5 h (ng/mL)
Just the number in ng/mL, nothing appended.

Input line: // returns reported concentration at 0.5 h for input CCCCC1CN(c2ccccc2)c2cc(SC)c(O/C=C(\F)C(=O)O)cc2S(=O)(=O)N1C (stereo not shown)
Output line: 3870

###

experiment notes: XTT cell toxicity in primary human hepatocytes
Type: cell-based
run conditions: human, primary human hepatocytes, Study #01, XTT, PHH; read-out: TC50
Structures can show the parent of a compound that is named as a salt.
quantity name: CC50 at 10 days

Input line: // returns reported CC50 at 10 days for input CCCCC1CN(c2ccccc2)c2cc(SC)c(O/C=C(\F)C(=O)O)cc2S(=O)(=O)N1C (centres unmarked) [Compound 1]
Output line: > 1000 nM

Input line: // returns reported CC50 at 10 days for input CC(C)OC(=O)OCOP(=O)(CO[C@H](C)Cn1cnc2c(N)ncnc21)OCOC(=O)OC(C)C [Tenofovir disoproxil fumarate, reference compound]
Output line: > 1000 nM

###

experiment notes: Pharmacokinetic phase: plasma exposure after oral dosing in non-infected PXB mice
Assay type: in vivo
run conditions: PXB, mouse, plasma, po, 10 mg/kg, non-infected PXB mice, 10 mg/kg p.o., 6 h, animal 103; read-out: Plasma conc.
quantity name: concentration at 6 h
Give the figure together with its unit, number first.

Input line: // returns reported concentration at 6 h for input CCCCC1CN(c2ccccc2)c2cc(SC)c(O/C=C(\F)C(=O)O)cc2S(=O)(=O)N1C (stereo not shown) [Compound 1]
Output line: 130 ng/mL

###

target desc: ASBT (Homo sapiens, UniProt Q12908)
Sequence (Q12908 whole entry): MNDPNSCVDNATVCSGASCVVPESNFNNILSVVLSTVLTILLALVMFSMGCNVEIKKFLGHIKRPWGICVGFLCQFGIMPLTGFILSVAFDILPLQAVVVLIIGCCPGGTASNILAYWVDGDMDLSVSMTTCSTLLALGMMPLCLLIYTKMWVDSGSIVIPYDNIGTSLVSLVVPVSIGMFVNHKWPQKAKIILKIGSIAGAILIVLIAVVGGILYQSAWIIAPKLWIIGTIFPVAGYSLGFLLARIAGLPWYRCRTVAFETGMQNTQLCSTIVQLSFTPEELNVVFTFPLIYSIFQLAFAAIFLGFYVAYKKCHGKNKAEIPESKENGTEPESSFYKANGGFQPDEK
experiment notes: [3H]taurocholate uptake in cell lines expressing human ASBT (Compound 2)
quantity name: pIC50
Would you please state pIC50, meaning minus log10 of the concentration in mol/L, as a bare number?

Input line: // returns reported pIC50 for input CCCCC1CN(c2ccc(F)cc2)c2cc(SC)c(OCC(C)(C)C(=O)O)cc2S(=O)(=O)N1C (stereo not shown)
Output line: 6.71

###

experiment notes: Pharmacokinetic phase: plasma exposure after oral dosing in non-infected PXB mice
Type: in vivo
run conditions: PXB, mouse, plasma, po, 30 mg/kg, non-infected PXB mice, 30 mg/kg p.o., 6 h, mean of 3 animals; read-out: Plasma conc. Mean ± SD
quantity name: concentration at 6 h (ng/mL)
Just the number in ng/mL, nothing appended.

Input line: // returns reported concentration at 6 h for input CCCCC1CN(c2ccccc2)c2cc(SC)c(O/C=C(\F)C(=O)O)cc2S(=O)(=O)N1C (stereo not shown) [Compound 1]
Output line: 715

###

experiment notes: Pharmacokinetic phase: plasma exposure after oral dosing in non-infected PXB mice
Assay type: in vivo
run conditions: PXB, mouse, plasma, po, 10 mg/kg, non-infected PXB mice, 10 mg/kg p.o., 24 h, animal 201; read-out: Plasma conc.
quantity name: concentration at 24 h (ng/mL)
Just the number in ng/mL, nothing appended.

Input line: // returns reported concentration at 24 h for input CCCCC1CN(c2ccccc2)c2cc(SC)c(O/C=C(\F)C(=O)O)cc2S(=O)(=O)N1C (stereo not shown)
Output line: 25.3

###

target desc: Human NTCP (Homo sapiens, UniProt Q14973)
Construct: expressed in transfected cells; peptide purchased from Pharmaron
experiment notes: 3H-taurocholic acid uptake in human NTCP-overexpressing cells
Assay type: cell-based
run conditions: 3H-taurocholic acid transport
quantity name: IC50 (nM)
Just the number in nM, nothing appended.

Input line: // returns reported IC50 for input CCCCC1CN(c2ccccc2)c2cc(SC)c(O/C=C(\F)C(=O)O)cc2S(=O)(=O)N1C (stereo not shown)
Output line: 0.53

###

target desc: Human NTCP (Homo sapiens, UniProt Q14973)
Construct: expressed in transfected cells; peptide purchased from Pharmaron
Sequence (Q14973 1-349): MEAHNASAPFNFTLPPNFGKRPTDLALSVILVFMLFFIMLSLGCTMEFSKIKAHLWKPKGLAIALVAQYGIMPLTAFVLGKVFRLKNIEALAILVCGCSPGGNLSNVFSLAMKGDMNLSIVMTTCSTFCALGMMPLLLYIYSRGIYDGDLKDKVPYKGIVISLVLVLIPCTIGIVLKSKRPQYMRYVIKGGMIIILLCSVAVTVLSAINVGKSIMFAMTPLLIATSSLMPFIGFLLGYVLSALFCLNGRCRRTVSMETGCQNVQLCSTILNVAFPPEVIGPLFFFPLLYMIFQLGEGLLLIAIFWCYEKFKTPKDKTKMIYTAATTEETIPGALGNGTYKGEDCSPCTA
experiment notes: [3H]taurocholate uptake in cell lines expressing human NTCP (Compound 2)
Type: cell-based
Protocol: NTCP and the related BA transporter apical sodium-dependent BA transporter (ASBT) from human were expressed in cell lines. Inhibition by Compound 2 was studied using [^3]taurocholate as substrate. Cryopreserved human hepatocytes infected with a clinical isolate of HBV were used for infection experiments. […] Total serum, urine, and fecal BAs were analyzed enzymatically and Compound 2 plasma concentrations were assessed via liquid chromatography-tandem mass spectrometry. […]
quantity name: pIC50
Would you please state pIC50, meaning minus log10 of the concentration in mol/L, as a bare number?

Input line: GET /values?readout=pIC50&system=Human NTCP (Homo sapiens, UniProt Q14973)&item= CCCCC1CN(c2ccc(F)cc2)c2cc(SC)c(OCC(C)(C)C(=O)O)cc2S(=O)(=O)N1C (stereo not shown)
Output line: 8.47

###

experiment notes: Pharmacokinetic phase: plasma exposure after oral dosing in non-infected PXB mice
Assay type: in vivo
run conditions: PXB, mouse, plasma, po, 10 mg/kg, non-infected PXB mice, 10 mg/kg p.o., 6 h, mean of 3 animals; read-out: Plasma conc. Mean ± SD
quantity name: concentration at 6 h

Input line: // returns reported concentration at 6 h for input CCCCC1CN(c2ccccc2)c2cc(SC)c(O/C=C(\F)C(=O)O)cc2S(=O)(=O)N1C (stereo not shown) [Compound 1]
Output line: 80 ng/mL

###

experiment notes: Pharmacokinetic phase: plasma exposure after oral dosing in non-infected PXB mice
Type: in vivo
run conditions: PXB, mouse, plasma, po, 10 mg/kg, non-infected PXB mice, 10 mg/kg p.o., 2 h, animal 103; read-out: Plasma conc.
Protocol: Thirty microliters (30 μL) of blood were collected from all animals under isoflurane anesthesia via the retro-orbital plexus/sinus using sodium heparin-coated calibrated pipettes according to the collection schedule shown in Table 7. […] The plasma exposure of Compound 1 from the pharmacokinetic phase was measured via LC/MS- MS. The lower limit of quantitation was 1 ng/mL.
quantity name: concentration at 2 h (ng/mL)
Just the number in ng/mL, nothing appended.

Input line: // returns reported concentration at 2 h for input CCCCC1CN(c2ccccc2)c2cc(SC)c(O/C=C(\F)C(=O)O)cc2S(=O)(=O)N1C (stereo not shown)
Output line: 177
